experimental.conditions: buffer; pH 7.4; 200.0 µM
reported.metric: solubility kinetic (µg/mL)

>>> measured_number("Cc1ccc(NC(=O)CCc2ccc(C)o2)cc1")
21.1
>>> measured_number("O=C(Nc1ccc2c(c1)OCCO2)c1cccc(Cl)c1")
36.9
>>> measured_number("CCCCCC1CC(CC(=O)NC(=S)Nc2ccccc2Cl)C(=O)O1 (stereo not given)")
1.4
>>> measured_number("CC(C)c1nc(SCC(=O)NC2CCCC2)c2ccccc2n1")
6.1
>>> measured_number("CC(C)(C)c1cc(-c2ccccc2)no1")
0.8
>>> measured_number("O=C(NC12CC3CC(CC(C3)C1)C2)N(Cc1ccccc1)Cc1ccncc1")
6.2
>>> measured_number("CCc1ccc(S(=O)(=O)Nc2ccc(C)c(NS(C)(=O)=O)c2)cc1")
48.6
>>> measured_number("CN(C)S(=O)(=O)c1ccc(NC(=S)NC(=O)C2CCC2)cc1")
12.5
>>> measured_number("Cc1c(O)nc2sc3ccccc3n2c1=O")
31.3
>>> measured_number("O=C(Nc1ccc(Cl)cc1F)c1ccc2c(c1)C(=O)N(Cc1ccncc1)C2=O")
10.8
>>> measured_number("CN1C(=O)CSC1=Nc1ccc(F)cc1")
28.7
>>> measured_number("CN[C@@H]1CC[C@H](c2ccc(Cl)c(Cl)c2)c2ccccc21")
28.8
>>> measured_number("CNc1ccc(C(=O)OCC(=O)NC(=O)NC2CCCC2)cc1[N+](=O)[O-]")
1.7
